B1: FAM98B (parent)
chain: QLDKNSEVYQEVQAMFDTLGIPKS

variants of: B1; assay: protein stability index of a GFP-peptide fusion (GPS, HEK-293T) (PSI 1-6); higher = more stable; settings: c terminus: a fixed tail appended;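 note: lentivirally expressed fusions sorted by FACS into six bins by GFP to DsRed ratio, PSI derived from sequencing read proportions per bin multiplied by bin number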
readout: protein stability index
Respond using a number only.

Worked set:
{"columns": ["variant.key", "protein stability index"],
 "data": [
  ["A14M", 2.89],
  ["S6C", 2.77],
  ["Q10C", 2.63],
  ["G20Y", 3.02]
]}

Enquiry: Read off the recorded protein stability index for L19P
Return: 3.17

Enquiry: Look up protein stability index of D17R and report it.
Return: 2.71

Enquiry: Kindly indicate its recorded protein stability index. Item: G20R
Return: 2.44

Enquiry: Report measured protein stability index; entry is P22R
Return: 4.78

Enquiry: Please report the measured protein stability index for E7A
Return: 3.44

Enquiry: Dear colleague, please send me the reported protein stability index for E7V when you can.
Return: 2.58

Enquiry: Consider the variant Q1F . State its measured protein stability index.
Return: 2.2

Source: the supplement of paper PMC10567573
